Tested on: store-operated calcium entry (SOCE) in Jurkat T cells
Experiment: SOCE inhibition, Fura-2 Ca2+ bioassay, thapsigargin-induced, Jurkat cells
Format: cell-based, human
Conditions: Homo sapiens, Jurkat, read-out: IC50 SOCE Jurkat
measuredParameter: IC50 (µg/mL)
Express the result in µg/mL but write the number alone.

Data request: Give me measured IC50, please, for this molecule: C=C(C)[C@@H]1CCC(C)=C[C@H]1c1c(O)cc(CCCCC)cc1O
Data returned: 7.42

Data request: Give me measured IC50, please, for this molecule: CCCCCc1cc2c(c(O)c1C(=O)O)[C@@H]1[C@H]3C(CC[C@@]3(C)O2)C1(C)C (stereo partly shown)
Data returned: 9.29

Data request: Give me measured IC50, please, for this molecule: CCCc1cc(O)c(C/C=C(\C)CCC=C(C)C)c(O)c1
Data returned: 5.27

Moving on to another molecule below.
Data request: Give me measured IC50, please, for this molecule: C=C(C)[C@@H]1CCC(C)=C[C@H]1c1c(O)cc(CCC)c(C(=O)O)c1O
Data returned: 11.3

====

Parameter: IC50. Scope: all listed entries.
Test system: store-operated calcium entry (SOCE) in HEK293 cells
Assay: SOCE inhibition, Fura-2 Ca2+ bioassay, thapsigargin-induced, HEK293 cells
Assay type: cell-based, human
Settings: Homo sapiens, HEK293, read-out: IC50 SOCE HEK-293, Table 5; individual cannabinoids; HEK-293
Express the result in µg/mL but write the number alone.

Data request: Give me measured IC50, please, for this compound: CCCCCc1cc2c(c(O)c1C(=O)O)-c1cc(C)ccc1C(C)(C)O2 [CBNA]
Data returned: 22.5

Moving on to another compound below.
Data request: Give me measured IC50, please, for this compound: CCCCCc1cc(O)c(C/C=C(\C)CCC=C(C)C)c(O)c1C(=O)O [CBGA]
Data returned: 5.72

====

System: store-operated calcium entry (SOCE) in HEK293 cells
Test: SOCE inhibition, Fura-2 Ca2+ bioassay, thapsigargin-induced, HEK293 cells
Assay type: cell-based, human
Conditions: Homo sapiens, HEK293, read-out: IC50 SOCE HEK-293, Table 5; individual cannabinoids; HEK-293
Parameter: IC50. Scope: all listed entries.
Express the result in µg/mL but write the number alone.

Data request: Give me measured IC50, please, for this compound: C=C(C)[C@@H]1CCC(C)=C[C@H]1c1c(O)cc(CCC)cc1O
Data returned: 30.2

Data request: Give me measured IC50, please, for this compound: CCCCCc1cc(O)c2c(c1)OC(C)(C)c1ccc(C)cc1-2
Data returned: 42.6

Data request: Give me measured IC50, please, for this compound: C=C(C)c1ccc(C)cc1-c1c(O)cc(CCCCC)cc1O
Data returned: 32.8

====

Parameter: IC50. Scope: all listed entries.
Test system: store-operated calcium entry (SOCE) in HEK293 cells
Experiment: SOCE inhibition, Fura-2 Ca2+ bioassay, thapsigargin-induced, HEK293 cells
Format: cell-based, human
Details: Homo sapiens, HEK293, read-out: IC50 SOCE HEK-293, Table 5; individual cannabinoids; HEK-293
Express the result in µg/mL but write the number alone.

# count of solved cases: 3
Data request: Give me measured IC50, please, for this molecule: CCCc1cc2c(c(O)c1C(=O)O)[C@@H]1C=C(C)CC[C@H]1C(C)(C)O2
Data returned: 21.3

Data request: Give me measured IC50, please, for this molecule: CCCc1cc(O)c(C/C=C(\C)CCC=C(C)C)c(O)c1C(=O)O
Data returned: 4.15

Data request: Give me measured IC50, please, for this molecule: CCCCCc1cc2c(c(O)c1C(=O)O)[C@@H]1C=C(C)CC[C@H]1C(C)(C)O2
Data returned: 17.5

Moving on to another molecule below.
Data request: Give me measured IC50, please, for this molecule: C=C(C)[C@@H]1CCC(C)=C[C@H]1c1c(O)cc(CCCCC)c(C(=O)O)c1O
Data returned: 16.1
